Recorded values, source patent US12123010B2.

# target.or.test.system: Variant PPO Enzyme L397Q, F420V (Amaranthus PPO2) (Amaranthus tuberculatus, UniProt Q0NZW9, F420V/L397Q)
assay.metric: pIC50
API: returns pIC50 as number; meaning -log10 of concentration in mol/L.

The molecule listed as CCOC(=O)COc1ncccc1Oc1cc(-n2c(=O)cc(C(F)(F)F)n(C)c2=O)c(F)cc1Cl has a reported pIC50 of 5.65

* * *

# target.or.test.system: Variant PPO Enzyme R128A, F420M (Amaranthus PPO2) (Amaranthus tuberculatus, UniProt Q0NZW9, F420M/R128A)
# Sequence (Q0NZW9 1-534 F420M/R128A): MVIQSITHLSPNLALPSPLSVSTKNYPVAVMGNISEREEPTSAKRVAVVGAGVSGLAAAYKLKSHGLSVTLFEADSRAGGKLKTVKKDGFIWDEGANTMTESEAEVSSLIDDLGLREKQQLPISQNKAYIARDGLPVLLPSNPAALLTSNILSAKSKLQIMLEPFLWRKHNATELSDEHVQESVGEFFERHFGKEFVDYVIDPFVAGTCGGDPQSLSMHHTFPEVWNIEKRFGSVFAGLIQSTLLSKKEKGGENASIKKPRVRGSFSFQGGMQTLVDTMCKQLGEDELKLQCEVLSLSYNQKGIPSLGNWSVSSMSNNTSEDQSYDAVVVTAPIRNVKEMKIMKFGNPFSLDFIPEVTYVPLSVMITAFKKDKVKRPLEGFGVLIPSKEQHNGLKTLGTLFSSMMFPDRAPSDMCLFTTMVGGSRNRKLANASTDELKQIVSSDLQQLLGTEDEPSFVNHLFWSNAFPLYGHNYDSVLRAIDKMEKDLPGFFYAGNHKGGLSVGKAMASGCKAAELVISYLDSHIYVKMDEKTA
assay.metric: pIC50
pIC50 here is simply -log10 of the concentration when that concentration is written in mol/L.

Examples with their reported pIC50 follow.
[
  {
    "molecule": "CCOC(=O)COc1ccccc1Oc1nc(-n2c(=O)cc(C(F)(F)F)n(C)c2=O)c(F)cc1Cl [Uracilpyridine 4]",
    "recorded.value": 7.16
  },
  {
    "molecule": "Cn1c(C(F)(F)F)cc(=O)n(-c2nc(Oc3cccnc3OCC(=O)OCC(F)F)c(Cl)cc2F)c1=O [Uracilpyridine 16]",
    "recorded.value": 7.05
  },
  {
    "molecule": "CC(C)COC(=O)COc1ncccc1Oc1nc(-n2c(=O)cc(C(F)(F)F)n(C)c2=O)c(F)cc1Cl [Uracilpyridine 17]",
    "recorded.value": 7.34
  },
  {
    "molecule": "Cn1c(C(F)(F)F)cc(=O)n(-c2nc(Oc3cccnc3OCC(=O)OCC3CC3)c(Cl)cc2F)c1=O [Uracilpyridine 15]",
    "recorded.value": 7.37
  },
  {
    "molecule": "Cn1c(C(F)(F)F)cc(=O)n(-c2nc(Oc3ccccc3OCC(=O)NS(C)(=O)=O)c(Cl)cc2F)c1=O [Uracilpyridine 10]",
    "recorded.value": 5.78
  },
  {
    "molecule": "CCOC(=O)COC(=O)COc1ncccc1Oc1nc(-n2c(=O)cc(C(F)(F)F)n(C)c2=O)c(F)cc1Cl [Uracilpyridine 18]",
    "recorded.value": 6.94
  }
]

The molecule identified as CCOC(=O)COc1ncccc1Oc1cc(-n2c(=O)cc(C(F)(F)F)n(C)c2=O)c(F)cc1Cl [Uracilpyridine 1] registered its pIC50 at 7.21

Query CCOC(=O)COc1ncccc1Oc1nc(-n2c(=O)cc(C(F)(F)F)n(C)c2=O)c(F)cc1Cl [Uracilpyridine 2] yields pIC50 of 7.01

* * *

# target.or.test.system: Variant PPO Enzyme R128A, F420V (Amaranthus PPO2) (Amaranthus tuberculatus, UniProt Q0NZW9, F420V/R128A)
# Sequence (Q0NZW9 1-534 F420V/R128A): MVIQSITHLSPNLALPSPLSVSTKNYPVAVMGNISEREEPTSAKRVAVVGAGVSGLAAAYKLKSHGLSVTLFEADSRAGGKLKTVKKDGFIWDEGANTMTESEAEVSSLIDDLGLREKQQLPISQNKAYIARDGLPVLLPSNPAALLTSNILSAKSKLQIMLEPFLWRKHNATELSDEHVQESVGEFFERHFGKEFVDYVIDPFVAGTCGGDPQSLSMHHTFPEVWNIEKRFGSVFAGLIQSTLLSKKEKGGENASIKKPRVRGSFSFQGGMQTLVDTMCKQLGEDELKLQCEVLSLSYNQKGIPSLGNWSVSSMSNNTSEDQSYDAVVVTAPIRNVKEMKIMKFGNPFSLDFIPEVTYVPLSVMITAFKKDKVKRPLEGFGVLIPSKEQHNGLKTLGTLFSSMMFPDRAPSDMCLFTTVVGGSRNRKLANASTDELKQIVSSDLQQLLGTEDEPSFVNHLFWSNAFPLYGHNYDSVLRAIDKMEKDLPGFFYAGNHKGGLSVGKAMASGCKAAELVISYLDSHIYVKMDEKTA
# test.details: biochemical
# Assay type: biochemical
assay.metric: IC50 (nM)
Unit nM implied. Number only.

IC50 reading for CCOC(=O)COc1ncccc1Oc1nc(-n2c(=O)cc(C(F)(F)F)n(C)c2=O)c(F)cc1Cl : 149

* * *

# target.or.test.system: Variant PPO Enzyme F420V (Amaranthus PPO2) (Amaranthus tuberculatus, UniProt Q0NZW9, F420V)
# Sequence (Q0NZW9 1-534 F420V): as the sequence (Q0NZW9 1-534 F420V/R128A) above, with A128R counted along it
assay.metric: pIC50
Remember the convention: pIC50 equals -log10 of concentration in molar.

pIC50 in this record for CCOC(=O)COc1ncccc1Oc1cc(-n2c(=O)cc(C(F)(F)F)n(C)c2=O)c(F)cc1Cl [Uracilpyridine 1] : 7.18
